target: hFASN enzyme (full length) (Homo sapiens, UniProt P49327); construct: 10 μL hFASN enzyme (full length, 300 ng, purified in house); made in house; assay: Fatty Acid Synthase (FASN) inhibition scintillation proximity assay; format: biochemical; conditions: read-out: Human FASN % inhibition @ 10 μM, 10 μM test compound
Quantity measured: inhibition at 10 µM (%)
Numbers only, in %.

In the examples that follow, each entry is paired with its recorded inhibition at 10 µM.
CC(C)c1ccc(-c2ccc(C3=NC4(CC4)C(=O)N3CC3CN(C(=O)C4CC4)C3)cc2)cn1 = 14
O=C(C1CC1)N1CCC[C@@H](CN2C(=O)C3(CC3)N=C2c2ccc(-c3ccc(-c4cccc(Cl)c4)cc3)cc2)C1 = 33

Dear colleague, could you send me inhibition at 10 µM for each of the items below? Thanks.
1. O=C(c1nccs1)N1CC(CN2C(=O)C3(CCOC3)N=C2c2ccc(-c3ccc4occc4c3)cc2)C1 (centres unmarked)
2. O=C(C1CC1)N1CC(CN2C(=O)C3(CC3)N=C2c2ccc(-c3ccc4nn(CCO)cc4c3)cc2)C1

Outgoing:
2
83

---

biological target: hFASN enzyme (full length) (Homo sapiens); construct: 10 μL hFASN enzyme (full length, 300 ng, purified in house); made in house; assay: Fatty Acid Synthase (FASN) inhibition scintillation proximity assay; format: biochemical; conditions: read-out: Human FASN % inhibition @ 10 μM, 10 μM test compound
T means recorded inhibition at 10 µM is 60% or above; F means it is below 60%.

CN(C)CC(=O)N1CCC2(CC1)N=C(c1ccc(-c3ccc4[nH]ccc4c3)cc1)N(C[C@@H]1CCN(C(=O)C3CC3)C1)C2=O = T
Cc1cc2cc(-c3ccc(C4=NC5(CC5)C(=O)N4C[C@@H]4CCN(C(=O)C5CC5)C4)c(C)c3)ccc2s1 = T
O=C(C1CC1)N1CC(CN2C(=O)C3(CC3)N=C2c2ccc(-c3ccc4ccccc4c3)cc2F)C1 = T

Incoming: Does inhibition at 10 µM meet or surpass 60% for Cn1cc(-c2ccc(-c3ccc(C4=NC5(CCOC5)C(=O)N4CC4CCN(C(=O)C(F)(F)F)C4)cc3)cc2)cn1 (centres unmarked) ?
Outgoing: F

Incoming: Does inhibition at 10 µM meet or surpass 60% for `O=C(C1CC1)N1CCC(CN2C(=O)C3(CC3)N=C2c2ccc(-c3ccc(Cl)cc3)cc2)CC1` ?
Outgoing: T

---

target: hFASN enzyme (full length) (Homo sapiens, UniProt P49327); construct: 10 μL hFASN enzyme (full length, 300 ng, purified in house); made in house; assay: Fatty Acid Synthase (FASN) inhibition scintillation proximity assay; type: biochemical; conditions: read-out: Human FASN pIC50 (converted)
Quantity measured: IC50 (nM)
Answers are plain numbers, in nM.

In the examples that follow, each entry is paired with its recorded IC50.
Cc1cc(-c2ccc3c(cnn3C)c2)ccc1C1=NC2(CC2)C(=O)N1CC1CN(C(=O)C(C)(C)CO)C1 = 204
O=C(C1CC1)N1CC(CN2C(=O)C3(CC3)N=C2c2ccc(-c3ccc4cc(Cl)ccc4c3)cc2F)C1 = 25.7

Recorded IC50 (compound `O=C(C1CC1)N1CC[C@@H](CN2C(=O)C3(CC3)N=C2c2ccc(-c3ccc4[nH]ccc4c3)s2)C1` ): 316

---

These compounds were tested on Fatty Acid Synthase Keto-reductase Domain (FASN KR) (Homo sapiens, UniProt P49327); IC50 is the recorded read-out.
Sequence (P49327 whole entry, the tested form may be a part): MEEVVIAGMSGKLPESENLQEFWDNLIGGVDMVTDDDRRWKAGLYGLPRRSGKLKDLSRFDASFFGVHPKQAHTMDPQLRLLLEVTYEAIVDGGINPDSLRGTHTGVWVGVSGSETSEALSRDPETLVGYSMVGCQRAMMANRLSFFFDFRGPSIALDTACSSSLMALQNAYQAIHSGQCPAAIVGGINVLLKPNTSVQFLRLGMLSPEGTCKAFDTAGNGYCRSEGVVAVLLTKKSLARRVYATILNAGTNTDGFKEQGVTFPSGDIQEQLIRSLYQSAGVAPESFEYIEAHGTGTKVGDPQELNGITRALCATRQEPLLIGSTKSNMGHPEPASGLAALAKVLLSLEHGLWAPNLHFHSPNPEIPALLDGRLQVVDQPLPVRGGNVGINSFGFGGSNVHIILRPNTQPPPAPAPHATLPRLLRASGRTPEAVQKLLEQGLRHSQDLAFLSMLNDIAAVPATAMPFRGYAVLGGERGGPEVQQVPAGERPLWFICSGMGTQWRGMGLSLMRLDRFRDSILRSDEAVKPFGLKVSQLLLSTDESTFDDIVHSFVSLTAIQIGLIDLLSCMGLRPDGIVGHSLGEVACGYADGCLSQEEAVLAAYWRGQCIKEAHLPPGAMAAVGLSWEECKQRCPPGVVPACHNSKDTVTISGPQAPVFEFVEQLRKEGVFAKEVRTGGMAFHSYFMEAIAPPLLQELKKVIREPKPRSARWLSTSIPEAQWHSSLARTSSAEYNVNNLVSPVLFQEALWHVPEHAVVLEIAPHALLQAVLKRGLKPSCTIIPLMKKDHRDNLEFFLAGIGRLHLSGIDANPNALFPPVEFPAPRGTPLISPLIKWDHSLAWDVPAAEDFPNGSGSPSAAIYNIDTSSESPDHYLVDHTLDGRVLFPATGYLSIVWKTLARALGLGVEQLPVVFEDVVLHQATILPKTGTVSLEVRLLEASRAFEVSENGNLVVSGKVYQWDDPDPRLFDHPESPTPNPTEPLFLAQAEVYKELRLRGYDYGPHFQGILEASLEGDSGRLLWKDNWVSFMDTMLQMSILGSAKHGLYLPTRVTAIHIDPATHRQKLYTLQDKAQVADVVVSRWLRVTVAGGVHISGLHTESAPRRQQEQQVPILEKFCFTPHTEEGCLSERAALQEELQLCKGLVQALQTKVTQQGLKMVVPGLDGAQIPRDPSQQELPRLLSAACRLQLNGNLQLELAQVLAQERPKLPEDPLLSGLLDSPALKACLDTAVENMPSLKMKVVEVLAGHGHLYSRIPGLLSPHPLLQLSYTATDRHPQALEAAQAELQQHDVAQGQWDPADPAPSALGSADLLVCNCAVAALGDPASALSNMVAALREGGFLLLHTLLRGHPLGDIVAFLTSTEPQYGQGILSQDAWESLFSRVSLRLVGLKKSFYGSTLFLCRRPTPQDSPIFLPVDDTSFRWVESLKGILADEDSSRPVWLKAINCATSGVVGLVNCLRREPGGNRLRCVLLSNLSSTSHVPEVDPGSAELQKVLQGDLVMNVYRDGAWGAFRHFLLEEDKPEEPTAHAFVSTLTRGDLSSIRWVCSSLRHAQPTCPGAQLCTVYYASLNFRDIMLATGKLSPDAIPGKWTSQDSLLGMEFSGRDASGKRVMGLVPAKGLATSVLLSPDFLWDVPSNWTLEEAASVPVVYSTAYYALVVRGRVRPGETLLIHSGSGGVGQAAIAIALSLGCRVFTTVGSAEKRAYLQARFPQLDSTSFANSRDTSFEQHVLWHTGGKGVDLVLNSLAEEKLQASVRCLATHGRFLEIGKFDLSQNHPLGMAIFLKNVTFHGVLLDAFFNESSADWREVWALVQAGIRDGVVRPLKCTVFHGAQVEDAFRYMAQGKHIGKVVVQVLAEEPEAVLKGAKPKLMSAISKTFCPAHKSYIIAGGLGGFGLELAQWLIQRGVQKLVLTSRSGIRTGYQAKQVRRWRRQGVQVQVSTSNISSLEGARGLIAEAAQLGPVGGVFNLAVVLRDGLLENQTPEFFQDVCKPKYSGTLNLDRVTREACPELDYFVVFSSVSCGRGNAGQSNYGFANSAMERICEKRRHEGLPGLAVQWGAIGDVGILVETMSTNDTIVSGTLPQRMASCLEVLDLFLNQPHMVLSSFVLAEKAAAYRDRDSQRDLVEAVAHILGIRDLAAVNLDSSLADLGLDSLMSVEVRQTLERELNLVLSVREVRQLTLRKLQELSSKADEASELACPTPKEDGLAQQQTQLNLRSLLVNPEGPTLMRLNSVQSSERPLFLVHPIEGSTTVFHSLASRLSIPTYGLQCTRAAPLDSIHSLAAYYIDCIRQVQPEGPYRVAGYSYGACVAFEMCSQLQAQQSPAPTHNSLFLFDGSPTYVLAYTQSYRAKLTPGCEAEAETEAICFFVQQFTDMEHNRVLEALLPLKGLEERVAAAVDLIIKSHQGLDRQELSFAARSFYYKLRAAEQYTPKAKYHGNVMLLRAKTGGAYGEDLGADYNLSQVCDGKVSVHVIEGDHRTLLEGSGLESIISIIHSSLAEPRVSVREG
Answers are plain numbers, in nM.

O=C(C1CC1)N1CC[C@@H](CN2C(=O)C3(CCCC3)N=C2c2ccc(-c3ccc4ncccc4c3)cc2)C1 = 2040

Dear colleague, could you send me IC50 for each of the items below? Thanks.
1. O=C(C1CC1)N1CC[C@@H](CN2C(=O)C3(CCCC3)N=C2c2ccc(-c3cccc4cnccc34)cc2)C1
2. Cc1cc(-c2ccc(-c3cnn(C)c3)cc2)ccc1C1=NC2(CC2)C(=O)N1CC1CN(C(=O)C2CC2)C1

Outgoing:
1: 1550; 2: 178

Dear colleague, could you send me IC50 for each of the items below? Thanks.
1. COC(=O)N1CC2(C1)N=C(c1ccc(-c3ccc4cccnc4c3)cc1)N(C[C@@H]1CCN(C(=O)[C@H]3CCCO3)C1)C2=O
2. O=C(N1CC(CN2C(=O)C3(CC3)N=C2c2ccc(-c3ccc4ccccc4c3)cc2F)C1)C1(O)CC1
3. Cc1cc2cc(-c3ccc(C4=NC5(CC5)C(=O)N4C[C@@H]4CCN(C(=O)C5CC5)C4)cc3)ccc2[nH]1

Outgoing:
[355, 49, 81.3]

Recorded IC50 (compound `Cn1cc(-c2ccc(-c3ccc(C4=NC5(CCOCC5)C(=O)N4C[C@@H]4CCN(C(=O)C5CC5)C4)cc3)cc2)cn1` ): 407

---

system: LNCaP-Vancouver prostate cells; assay: In vitro LNCaP Vancouver prostate cell proliferation assay in lipid reduced medium; assay type: cell-based; settings: read-out: pIC50 LNCaP_Vancouver prostate cell (converted)
What IC50 was measured for each of the following?
One number for each entry, in nM.

In the examples that follow, each entry is paired with its recorded IC50.
O=C(C1CC1)N1CC(CN2C(=O)C3(CC3)N=C2c2ccc(-c3ccc(Cl)cc3F)cc2F)C1 [compound 537] = 1320
O=C(C1CC1)N1CC[C@@H](CN2C(=O)C3(CC3)N=C2c2ccc(-c3ccc4[nH]c(CO)cc4c3)cc2)C1 [compound 216] = 162
Cc1cc(-c2ccc3cc(Cl)ccc3c2)ccc1C1=NC2(CC2)C(=O)N1CC1CN(C(=O)C2(C)CC2)C1 [compound 321] = 182
O=C(C1CC1)N1CC[C@H](CN2C(=O)C3(CC3)N=C2c2ccc(-c3ccc4occc4c3)cc2)C1 [compound 409] = 2190
Cn1ccc2cc(-c3ccc(C4=NC5(CC5)C(=O)N4C[C@@H]4CCN(C(=O)C5CC5)C4)cc3)ccc21 [compound 215] = 70.8

Dear colleague, could you send me IC50 for each of the items below? Thanks.
1. Cc1cc(-c2cccc3nn(C)cc23)ccc1C1=NC2(CC2)C(=O)N1CC1CN(C(=O)C2(C)CC2)C1 [compound 598]
2. Cc1cc(-c2ccc3cc[nH]c3c2)ccc1C1=NC2(CCCC2)C(=O)N1C[C@@H]1CCN(C(=O)C2CC2)C1 [compound 873]
3. O=C(C1CC1)N1CC[C@@H](CN2C(=O)C3(CC3)N=C2c2ccc(-c3ccc4cncnc4c3)cc2)C1 [compound 312]
4. Cc1cc(-c2ccc3cc(F)ccc3c2)ccc1C1=NC2(CC2)C(=O)N1C[C@@H]1CCN(C(=O)C2(C)CC2)C1 [compound 266]
5. N#Cc1cc2cc(-c3ccc(C4=NC5(CC5)C(=O)N4CC4CN(C(=O)C5CC5)C4)cc3)ccc2o1 [compound 475]

Outgoing:
2340
263
123
15.1
3310

Dear colleague, could you send me IC50 for each of the items below? Thanks.
1. Cc1cc(-c2ccc3c(cnn3C)c2)ccc1C1=NC2(CC2)C(=O)N1CC1CN(C(=O)C2CCC2)C1 [compound 489]
2. Nc1cccc(-c2ccc(C3=NC4(CC4)C(=O)N3C[C@@H]3CCN(C(=O)C4CC4)C3)cc2)n1 [compound 400]
3. O=C(C1CC1)N1CC[C@@H](CN2C(=O)C3(CCOCC3)N=C2c2ccc(-c3ccc4cccnc4c3)cc2)C1 [compound 661]

Outgoing:
[708, 1200, 191]

Dear colleague, could you send me IC50 for each of the items below? Thanks.
1. COc1nn(C)c2ccc(-c3ccc(C4=NC5(CC5)C(=O)N4C[C@@H]4CCN(C(=O)C5CC5)C4)cc3)cc12 [compound 557]
2. O=C(C1CC1)N1CC[C@@H](CN2C(=O)C3(CC3)N=C2c2ccc(-c3ccc4cc[nH]c4c3)cc2F)C1 [compound 247]
3. O=C(C1CC1)N1CC(CN2C(=O)C3(CC3)N=C2c2ccc(-c3nc4ccc(Cl)cc4s3)cc2F)C1 [compound 274]

Outgoing:
[1380, 23.4, 339]

---

System: LNCaP-Vancouver prostate cells
Test: In vitro LNCaP Vancouver prostate cell proliferation assay in lipid reduced medium
Format: cell-based
Conditions: read-out: pIC50 LNCaP_Vancouver prostate cell (converted)
Procedure: LNCaP-Vancouver prostate cells were obtained from the Vancouver Prostate Cancer Centre. Cells were maintained in RPMI-1640, 10% Fetal Calf Serum (FCS, Hyclone), 2 mM glutamine and 50 μg/ml Gentamicin. […] pIC50 values were calculated as follows. […]
What IC50 was measured for each of the following?
Numbers only, in nM.

In the examples that follow, each entry is paired with its recorded IC50.
O=C(C1CC1)N1CC[C@@H](CN2C(=O)C3(CC3)N=C2c2ccc(-c3ccc4occc4c3)cc2F)C1 = 537
Cn1cc(-c2ccc(-c3ccc(C4=NC5(CC5)C(=O)N4C[C@@H]4CCN(C(=O)C5CC5)C4)c(F)c3)cc2)cn1 = 33.1
Cn1nccc1-c1ccc(-c2ccc(C3=NC4(CC4)C(=O)N3C[C@@H]3CCN(C(=O)C4(O)CC4)C3)c(F)c2)cc1 = 490
O=C(C1CC1)N1CC[C@@H](CN2C(=O)C3(CC3)N=C2c2ccc(-c3ccc4cccnc4c3)cc2)C1 = 31.6
O=C(C1CC1)N1CC[C@H](CN2C(=O)C3(CC3)N=C2c2ccc(-c3ccc(-c4cccc(Cl)c4)cc3)cc2)C1 = 457

Dear colleague, could you send me IC50 for each of the items below? Thanks.
1. O=C(C1CC1)N1CC[C@@H](CN2C(=O)C3(CC3)N=C2c2ccc(-c3ccc4c(c3)N=CC4)s2)C1
2. O=C(C1CC1)N1CC[C@@H](CN2C(=O)C3(CC3)N=C2c2ccc(-c3cccc4[nH]ncc34)c(F)c2)C1
3. O=C(C1CC1)N1CC[C@@H](CN2C(=O)C3(CC3)N=C2c2ccc(-c3nc4ccccc4s3)cc2)C1
4. Cc1cc(-c2cccc(NC(=O)C3CC3)c2)ccc1C1=NC2(CC2)C(=O)N1C[C@@H]1CCN(C(=O)C2CC2)C1

Outgoing:
[2340, 631, 479, 1350]

Dear colleague, could you send me IC50 for each of the items below? Thanks.
1. Cn1ncc2cc(-c3ccc(C4=NC5(CC5)C(=O)N4C[C@@H]4CCN(C(=O)C5(C)CC5)C4)cc3)ccc21
2. O=C(C1CC1)N1CC[C@@H](CN2C(=O)C3(CC3)N=C2c2ccc(-c3nc4ccccc4s3)cc2F)C1

Outgoing:
20.9
251
